// values below are AC50; system is Cytochrome P450 2C9 (Homo sapiens, UniProt P11712)
Sequence (P11712 whole entry): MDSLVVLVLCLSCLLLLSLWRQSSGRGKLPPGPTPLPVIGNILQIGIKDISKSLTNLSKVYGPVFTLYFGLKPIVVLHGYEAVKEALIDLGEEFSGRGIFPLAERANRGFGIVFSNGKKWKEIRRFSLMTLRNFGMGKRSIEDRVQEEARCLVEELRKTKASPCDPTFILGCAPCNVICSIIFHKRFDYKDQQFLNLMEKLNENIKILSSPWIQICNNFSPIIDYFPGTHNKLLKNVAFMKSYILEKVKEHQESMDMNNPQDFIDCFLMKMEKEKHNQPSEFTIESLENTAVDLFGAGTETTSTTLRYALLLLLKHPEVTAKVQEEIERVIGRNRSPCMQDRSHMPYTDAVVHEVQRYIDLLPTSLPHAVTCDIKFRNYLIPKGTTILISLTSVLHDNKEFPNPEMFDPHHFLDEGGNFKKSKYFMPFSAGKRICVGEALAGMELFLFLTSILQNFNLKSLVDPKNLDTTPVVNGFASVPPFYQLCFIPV
test_readout: AC50

* CC1=CC(=O)c2ccccc2C1=O | 6.31 µM (inconclusive)
* COc1ccc(-n2cnnc2)cc1 | 0.0282 µM (inconclusive)
* COc1ccc(-c2nc3cnc(OC)nc3n(CCc3ccccc3)c2=O)cc1 | 6.31 µM (inconclusive)
* N[C@@H]1C[C@H]1c1ccccc1.N[C@H]1C[C@@H]1c1ccccc1 | 39.8 µM (inconclusive)

###

Reported IC50 values for a set of molecules
Molecular target: Genome polyprotein (dengue virus type 2)
Sequence (P29990 2492-3391 limits assumed): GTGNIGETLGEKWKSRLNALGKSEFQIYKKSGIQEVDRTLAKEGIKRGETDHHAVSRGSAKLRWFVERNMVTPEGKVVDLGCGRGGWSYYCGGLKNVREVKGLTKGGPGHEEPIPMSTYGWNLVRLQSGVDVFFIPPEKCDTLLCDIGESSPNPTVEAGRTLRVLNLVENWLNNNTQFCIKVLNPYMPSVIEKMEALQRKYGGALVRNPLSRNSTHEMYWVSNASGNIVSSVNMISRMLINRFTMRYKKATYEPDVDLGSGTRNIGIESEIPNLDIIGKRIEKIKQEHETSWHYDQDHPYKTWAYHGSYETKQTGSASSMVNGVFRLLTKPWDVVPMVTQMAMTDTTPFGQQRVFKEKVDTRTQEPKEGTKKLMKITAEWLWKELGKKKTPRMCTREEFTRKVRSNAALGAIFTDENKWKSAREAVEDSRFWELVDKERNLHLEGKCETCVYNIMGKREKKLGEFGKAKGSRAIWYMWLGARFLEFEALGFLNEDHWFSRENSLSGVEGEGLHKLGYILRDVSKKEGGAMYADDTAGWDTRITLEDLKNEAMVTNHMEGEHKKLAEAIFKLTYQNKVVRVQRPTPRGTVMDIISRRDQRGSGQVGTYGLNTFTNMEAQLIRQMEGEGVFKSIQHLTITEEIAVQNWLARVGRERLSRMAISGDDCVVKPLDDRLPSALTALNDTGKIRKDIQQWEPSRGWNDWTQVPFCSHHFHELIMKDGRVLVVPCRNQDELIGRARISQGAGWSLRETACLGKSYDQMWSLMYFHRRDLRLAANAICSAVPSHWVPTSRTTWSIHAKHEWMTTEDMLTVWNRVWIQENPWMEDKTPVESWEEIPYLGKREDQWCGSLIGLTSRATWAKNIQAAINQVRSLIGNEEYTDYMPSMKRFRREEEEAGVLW
Test: Dengue-2 NS5 methyltransferase inhibitors, primary screen, biochemical, confirmation dose response (AID 588689)
Type: functional
Active and inactive are the calls of the source. The rule behind the calls is not given here.
test_readout: IC50

- COc1cc(/C=C2\SC(=S)N(NS(=O)(=O)c3ccccc3)C2=O)cc(OC)c1OC: 65 µM (active)
- COc1cc(C)c2c(c1C=O)Oc1c(c(C)c(O)c3c1C(O)OC3=O)OC2=O (stereo not given): 71.2 µM (active)
- C#CCOc1c(/C=C\c2nc(O)c([N+](=O)[O-])c(O)n2)cc(Br)cc1OC: 74.5 µM (active)
- CC1=NN(c2ccc(C(=O)O)cc2)C(=O)/C1=C\c1ccc(OC(=O)c2cccs2)cc1: 15.6 µM (active)
- COc1cc(/C=C2\SC(=S)N(C(C(=O)O)c3ccccc3)C2=O)cc(OC)c1OC (stereo not given): > 100 µM (active)
- Cc1sc2nc3ccc(NCc4ccco4)nn3c(=O)c2c1C: > 100 µM (active)
- Cc1cc(C)c(S(=O)(=O)/N=C2\C=C(Nc3ccc(C(=O)O)cc3)C(=O)c3ccccc32)c(C)c1: 21.2 µM (active)
- COc1ccccc1/C=C1\SC(=S)N(NS(=O)(=O)c2ccccc2)C1=O: 36.2 µM (active)
- CC1=NOC(=O)/C1=C/c1ccc2c(c1)OCO2: 11.6 µM (active)
- O=C(O)c1ccc(N/N=C/c2cn(Cc3ccccc3F)c3ccccc23)cc1: 64.1 µM (active)
